Test: Solubility of the crystalline forms
Format: physicochemical
Conditions: organic solvent or mixture; MTBE, 25° C.; read-out: Solubility in MTBE
observable: solubility

Request: Give solubility for the following compound: O=C(Nc1cc(F)c(F)c(F)c1)c1ccc(F)c(S(=O)(=O)N2CCC(O)CC2)c1 [Form I]
Response: < 2000 µg/mL

Values were extracted from patent US10077239B2.
